Hey, just so you know, these numbers are from ChEMBL document CHEMBL4616608.

Experiment: in vivo
Conditions: rat, plasma, po, 10 mg/kg
OBSERVED_PROPERTY: concentration at 1 h (ng/mL)

[[record]]
item_smiles = "CC1(C)CN2CCNCc3ccc(F)c1c32"
experimental_value = 608

